Listed below: protein stability index values for each entry.
Test Protocol: protein stability index of a GFP-peptide fusion (yeast GPS) (PSI 1-4); higher = more stable; sorted into four equal gates, so the index is relative within each strain
Recorded Conditions: doa10∆
// print number alone

              sequence_text         measurement_name  reported_value
0  LADSLDRCVDPEDPYFN [DIS3]  protein stability index            3.05

For ARAPKYASKAVPHYNRL [RPL25] , what is its reported protein stability index?
2.94

Recorded protein stability index of RSATGAKRAQFRKKRKF [RPS8A] , please.
2.94

Need protein stability index of DLLNAASIESADILCPL [IRR1] , thanks.
3.05

Look up protein stability index for this sequence: AGNKVGQSEASLLNLLN [RPP0]
3.03

----------
Test Protocol: protein stability index of a GFP-peptide fusion (yeast GPS) (PSI 1-4); higher = more stable; sorted into four equal gates, so the index is relative within each strain
Recorded Conditions: pdr5∆
Item-by-item account of protein stability index
# respond with the number and nothing more

Some sequences with recorded protein stability index:
In [3]: df
Out[3]:
                        sequence_text  reported_value
0            FQAQQAQQAQQAQQAQQ [SNF2]               3
1  PFILEYDLMAPNGHIST [YMR129W/POM152]               3
2            VDVNNKFIALCEQQPSQ [SIN4]            2.96
3           WTMRIEGRLLDNVQAND [SNF12]            2.96

Switching to the query record.
Would you mind telling me what protein stability index value was observed for VSGNNASDEPSRKKNRR [SSN3] ?
3.01

----------
Test Protocol: protein stability index of a GFP-peptide fusion (yeast GPS) (PSI 1-4); higher = more stable; sorted into four equal gates, so the index is relative within each strain
Recorded Conditions: doa10∆
Could you label it yes if measured protein stability index is 3 or higher, and no otherwise?

Consider the worked cases shown below.
                        sequence_text  class_name
0            DPQDVFNYNIFMHDPSV [SIR2]          no
1            EEVQQAQTEIKLFNKWS [RPS5]         yes
2           MGPLSNIAQMIPGMSNM [SRP54]          no
3            LSIICVGGHNVTIREQI [SIR3]          no
4  ITTFVKRSTVPLNDGFV [YML103C/NUP188]          no
5            EDYELSPQAVSSFVRQE [PRE1]          no
6            WASKYGQEYPRIIGLSA [BRR2]          no
7            MVMREETIKSLEDPYKY [CSN9]          no

Form field: protein stability index at least 3? Entry: TNKDIICQIISSTITGD [RPL5]
no

Could you tell me if the measured protein stability index of WSKTIKARTNLHQHVVL [RPC34] reaches 3 or more?
no

----------
Test Protocol: protein stability index of a GFP-peptide fusion (yeast GPS) (PSI 1-4); higher = more stable; sorted into four equal gates, so the index is relative within each strain
Recorded Conditions: san1∆
Measurement Name: protein stability index

In [3]: df
Out[3]:
              sequence_text  reported_value
0  TTKMWPTNCPLRQFKTC [BRR2]            2.01
1  GPKLRASDLKINELFKK [RPN8]             1.1

Look at this sequence and give its reported protein stability index. RAIPFRRFNSSIGRTAQ [RPL17A]
2.89

Given LSQNESTRASTVPNLPT [ISW2] , state its recorded protein stability index.
2.46

For FKRDLLREKEDKKNSSD [YJL039C/NUP192] , what is its reported protein stability index?
3.23

Look up protein stability index: LKSGLPLSGLLFKNYRF [YMR129W/POM152]
3.63

GET /values?readout=protein stability index&item= TRIKLLLTKNVSCYRPR [RPS6A]
2.88

// lookup protein stability index for HGMDFTTDKLRSMVRKW [RPS1A]
2.48

What value of protein stability index has been recorded for this entry: DTFELIKTFLVDLTSSN [YDL116W/NUP84]
2.55
